Origin of measurements: PubChem BioAssay (EPA / NIEHS)

# Read-out: Alpha-fetoprotein (AFP) gene, AFP (gene 174)
# assay-summary: LTEA_HepaRG_AFP: Life Technologies and Expression Analysis (LTEA) Assay for Alpha-fetoprotein (AFP) gene using HepaRG (AID 2283472)
# condition-summary: mRNA level, 48 h; actives raise or lower the signal
Calls of active or inactive are those of the source. Rule for the calls: active = hit-call score of the fitted dose curve at least 0.9, where 1 is the maximum; inactive = score below 0.9.
Hello, when you answer, please use one of the following outcomes: active, inactive

[[record]]
chemical_string = "O=C(O)Cc1cc(I)c(Oc2ccc(O)c(I)c2)c(I)c1"
cat = "active"


Which outcome was assigned to CN(C)C(=O)C1(N2CCCCC2)CCN(CC[C@@]2(c3ccc(Cl)c(Cl)c3)CN(C(=O)c3ccccc3)CCO2)CC1 in this test? inactive

Answer briefly: the call reported for CC1(C)NC(=O)N(c2ccc([N+](=O)[O-])c(C(F)(F)F)c2)C1=O in this assay. active

# outcome recorded in this test, key = CCN(Cc1cccnc1)C(=O)c1cccc(Cl)c1[C@]1(C)C(=O)N(Cc2ccc(OC)cc2OC)c2ccc(Cl)cc21 active

Dear colleague, could you share the recorded outcome for COc1ccc2cc(S(=O)(=O)N[C@H](CC(=O)N[C@H](Cc3ccc(CN4[C@H](C)CCC[C@@H]4C)cc3)C(=O)N(C)C(C)C)c3ccc4c(c3)OCO4)ccc2c1 when you have a moment? inactive

* * *

# assay-summary: ATG_ISRE_CIS: Attagene CIS-FACTORIAL HepG2 Assay for human Interferon Regulatory Factor 1 (IRF1) binding to an Interferon-Stimulated Response Element (ISRE) (AID 2282948)
# condition-summary: HepG2 ISRE cis-reporter (Attagene), mRNA transcription readout; actives raise or lower the signal
Calls of active or inactive are those of the source. The calls were made as follows: active = hit-call score of the fitted dose curve at least 0.9, where 1 is the maximum; inactive = score below 0.9.
Response enum: 1 for active, 0 for inactive

[[record]]
molecule = "Cc1occc1C(=O)Nc1ccc(C(=O)N2CCC(F)(F)/C(=C\\C(=O)N3CCC(N4CCCCC4)CC3)c3ccccc32)cc1"
cat = 1


Recorded call for CCCCCc1ccc(N)cc1 ? 0

Short answer needed: outcome of this test for NCc1cccc(C2CCN(C(=O)c3ccc(C#Cc4ccccc4F)o3)CC2)c1 ? 1

Tell me the assay call for NC(=O)c1nc(-c2cccc(-c3cc(F)ccc3OCC(F)(F)C(F)(F)F)c2)n[nH]1 please. 0

What did this assay record as the result for Cc1ncc(CO)c(CO)c1O ? 0

# lookup: test call for OC12N=C(c3ccccc3)SC1Cc1cc(Cl)ccc12 (stereo not given) 0

Field: outcome | Entry: Clc1cc(Cl)c2c(c1)N=C1CCCCCN1C2 0

Which outcome did this test record for the molecule C[C@]12CC[C@@H]3c4ccc(O)cc4CC[C@H]3[C@@H]1CC[C@H]2O ? 0

What is the recorded call for this molecule in the test? CCN(Cc1cccnc1)C(=O)c1cccc(Cl)c1[C@]1(C)C(=O)N(Cc2ccc(OC)cc2OC)c2ccc(Cl)cc21 1

What classification did CC(C)(C)c1cc(/C=C2\SC(N)=NC2=O)cc(C(C)(C)C)c1O end up with in this test? 1

* * *

# assay-summary: ATG_CMV_CIS: Attagene CIS-FACTORIAL HepG2 Assay for human CMV (Internal Marker) (AID 2282928);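 note: endpoint acts as a background internal control marker rather than a target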
# condition-summary: HepG2 CMV promoter reporter, transcription factor profiling; actives raise or lower the signal
The source made the active and inactive calls. Rule for the calls: active = hit-call score of the fitted dose curve at least 0.9, where 1 is the maximum; inactive = score below 0.9.
Please reply with one of these outcomes: active, inactive

As a guide, the following entries are already answered.
[[record]]
molecule = "CC(O)CC(C)(C)O (configuration not stated)"
cat = "inactive"

[[record]]
molecule = "COc1cccc([C@H](O)C2CCN(CCc3ccc(F)cc3)CC2)c1OC"
cat = "inactive"

[[record]]
molecule = "O=c1c(-c2ccc(O)cc2)coc2cc(O)cc(O)c12"
cat = "active"

[[record]]
molecule = "Cc1occc1C(=O)Nc1ccc(C(=O)N2CCC(F)(F)/C(=C\\C(=O)N3CCC(N4CCCCC4)CC3)c3ccccc32)cc1"
cat = "inactive"

[[record]]
molecule = "O=C=NCCCCCCN=C=O"
cat = "inactive"

[[record]]
molecule = "CCCCCCCCOC(=O)c1cc(O)c(O)c(O)c1"
cat = "inactive"


What call does the record list for CCCCCCCC[Si](OCC)(OCC)OCC ? active

So what was the verdict on O=C1O[C@H]([C@@H](O)CO)C(O)=C1O in this test? inactive

GET /call?item= Cc1oc2c(NC(=O)c3c(Cl)cccc3Cl)cccc2c1C(C)(C)O returns the recorded outcome of this test. active

So what was the verdict on CCN(Cc1cccnc1)C(=O)c1cccc(Cl)c1[C@]1(C)C(=O)N(Cc2ccc(OC)cc2OC)c2ccc(Cl)cc21 in this test? active

How was CCCC(=O)OCCC(C)C classified in this test? inactive

* * *

# Read-out: Tissue Factor, F3 (gene 2152)
# assay-summary: BSK_CASM3C_TissueFactor: BioMAP Diversity Plus: CASM3C Assay for Tissue Factor Biomarker Activity (AID 2283052);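 note: cell surface tissue factor protein level read by ELISA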
# condition-summary: primary human coronary artery smooth muscle cells; actives raise or lower the signal
The source made the active and inactive calls. The calls were made as follows: active = hit-call score of the fitted dose curve at least 0.9, where 1 is the maximum; inactive = score below 0.9.
measurement-type: AC50

[[record]]
molecule = "COc1cc(C(=O)NC2CCN(C)CC2)ccc1Nc1ncc2c(n1)N(C1CCCC1)CC(F)(F)C(=O)N2C"
obs_value = "14.2 µM (active)"

[[record]]
molecule = "O=C1c2ccccc2C(=O)N1CCc1noc(-c2ccc(CN3CCCCCC3)s2)n1"
obs_value = "inactive"

[[record]]
molecule = "Cc1oc2c(NC(=O)c3c(Cl)cccc3Cl)cccc2c1C(C)(C)O"
obs_value = "29.4 µM (active)"

[[record]]
molecule = "Cc1c2ccccc2c(C)c2c1ccc1ccccc12"
obs_value = "inactive"

[[record]]
molecule = "CCCC(=O)OCCC(C)C"
obs_value = "inactive"


Switching to the query record.
Kindly note the recorded AC50 for O=C(Nc1ccc(Cl)cc1)Nc1ccc(Cl)c(Cl)c1 , which is 9.41 µM (active)

* * *

# target-of-assay: Heat shock factor protein 1 (Homo sapiens) (UniProt Q00613)
# Sequence (Q00613 whole entry, looked up): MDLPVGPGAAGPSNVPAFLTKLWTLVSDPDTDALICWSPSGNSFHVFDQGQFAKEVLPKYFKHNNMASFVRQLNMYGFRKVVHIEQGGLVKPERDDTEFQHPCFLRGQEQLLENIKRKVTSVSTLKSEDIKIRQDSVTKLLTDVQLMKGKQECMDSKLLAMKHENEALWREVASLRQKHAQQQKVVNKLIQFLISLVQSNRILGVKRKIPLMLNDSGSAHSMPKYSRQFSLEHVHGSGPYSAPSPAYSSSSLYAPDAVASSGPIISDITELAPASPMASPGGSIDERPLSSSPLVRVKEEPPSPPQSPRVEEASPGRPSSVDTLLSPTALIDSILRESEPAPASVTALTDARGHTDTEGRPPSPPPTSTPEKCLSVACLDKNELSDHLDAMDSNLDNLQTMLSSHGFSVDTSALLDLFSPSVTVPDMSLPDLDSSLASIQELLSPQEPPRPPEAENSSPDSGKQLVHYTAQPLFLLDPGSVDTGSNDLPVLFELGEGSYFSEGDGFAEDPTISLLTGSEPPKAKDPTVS
# assay-summary: ATG_HSE_CIS: Attagene CIS-FACTORIAL HepG2 Assay for human Heat Shock Transcription Factor 1 (HSE) (AID 2282953)
# condition-summary: HepG2 HSE cis-reporter, Attagene RNA transcription; actives raise or lower the signal
Activity calls are given as the source filed them. The calls were made as follows: active = hit-call score of the fitted dose curve at least 0.9, where 1 is the maximum; inactive = score below 0.9.
Output constraint: value belongs to active, inactive

For orientation, consider the following solved cases.
[[record]]
chemical_string = "Oc1ccc2ccccc2c1"
target_of_assay = "Heat shock factor protein 1 (Homo sapiens) (UniProt Q00613)"
cat = "inactive"

[[record]]
chemical_string = "CC[C@@H]1C[C@H](N(Cc2cc(C(F)(F)F)cc(C(F)(F)F)c2)C(C)=O)c2cc(C(F)(F)F)ccc2N1C(=O)OC(C)C"
target_of_assay = "Heat shock factor protein 1 (Homo sapiens) (UniProt Q00613)"
cat = "inactive"

[[record]]
chemical_string = "NC(=O)c1nc(-c2cccc(-c3cc(F)ccc3OCC(F)(F)C(F)(F)F)c2)n[nH]1"
target_of_assay = "Heat shock factor protein 1 (Homo sapiens) (UniProt Q00613)"
cat = "active"

[[record]]
chemical_string = "CCN(Cc1cccnc1)C(=O)c1cccc(Cl)c1[C@]1(C)C(=O)N(Cc2ccc(OC)cc2OC)c2ccc(Cl)cc21"
target_of_assay = "Heat shock factor protein 1 (Homo sapiens) (UniProt Q00613)"
cat = "active"


Kindly consider the entry below.
What classification did Cc1oc2c(NC(=O)c3c(Cl)cccc3Cl)cccc2c1C(C)(C)O end up with in this test? active

* * *

# assay-summary: ATG_TA_CIS: Attagene CIS-FACTORIAL HepG2 Assay for human TA Basal Promoter (AID 2282964)
# condition-summary: HepG2 Attagene CIS-factorial TA basal promoter reporter; actives raise or lower the signal
Activity calls are given as the source filed them. How the source made its calls: active means hit-call score of the fitted dose curve at least 0.9, where 1 is the maximum; inactive means score below 0.9.
measurement-type: AC50

As a guide, the following entries are already answered.
[[record]]
chemical_string = "COc1ccc2cc(S(=O)(=O)N[C@H](CC(=O)N[C@H](Cc3ccc(CN4[C@H](C)CCC[C@@H]4C)cc3)C(=O)N(C)C(C)C)c3ccc4c(c3)OCO4)ccc2c1"
obs_value = "11 µM (active)"

[[record]]
chemical_string = "CN(C)C(=O)C1(N2CCCCC2)CCN(CC[C@@]2(c3ccc(Cl)c(Cl)c3)CN(C(=O)c3ccccc3)CCO2)CC1"
obs_value = "inactive"

[[record]]
chemical_string = "CCOC(=O)O[C@H](C)OC(=O)c1ccc2c(c1)cc(C(=O)NC1CCN(C(C)C)CC1)n2Cc1cc(-c2ccc(Cl)s2)on1"
obs_value = "inactive"

[[record]]
chemical_string = "CC/C(=C(/CC)c1ccc(O)cc1)c1ccc(O)cc1"
obs_value = "inactive"

[[record]]
chemical_string = "O=c1c(-c2ccc(O)cc2)coc2cc(O)cc(O)c12"
obs_value = "inactive"


Then this compound:
Lab note: CC[C@@H]1C[C@H](N(Cc2cc(C(F)(F)F)cc(C(F)(F)F)c2)C(C)=O)c2cc(C(F)(F)F)ccc2N1C(=O)OC(C)C gave AC50 of inactive

* * *

# Read-out: Transforming Growth Factor (TGFA), TGFA (gene 7039)
# assay-summary: LTEA_HepaRG_TGFA: Life Technologies and Expression Analysis (LTEA) Assay for Transforming Growth Factor (TGFA) using HepaRG (AID 2283532)
# condition-summary: mRNA level, 48 h; actives raise or lower the signal
Calls of active or inactive are those of the source. How the source made its calls: active means hit-call score of the fitted dose curve at least 0.9, where 1 is the maximum; inactive means score below 0.9.
# valid calls are YES (active), NO (inactive); nothing else

[[record]]
compound = "CCCC(=O)OCCC(C)C"
cat = "NO"

[[record]]
compound = "CCCCCCCCCCCO"
cat = "NO"

[[record]]
compound = "COc1ccc2cc(S(=O)(=O)N[C@H](CC(=O)N[C@H](Cc3ccc(CN4[C@H](C)CCC[C@@H]4C)cc3)C(=O)N(C)C(C)C)c3ccc4c(c3)OCO4)ccc2c1"
cat = "YES"

[[record]]
compound = "COc1cccc([C@H](O)C2CCN(CCc3ccc(F)cc3)CC2)c1OC"
cat = "NO"

[[record]]
compound = "CCCCOC(=O)CC(CC(=O)OCCCC)(OC(C)=O)C(=O)OCCCC"
cat = "NO"


Please state the recorded outcome for this compound: O=C(O)c1ccccc1-n1cc(C(=O)O)c(=O)c2cc(Nc3c(F)cc(F)cc3Cl)c(Cl)cc21 NO

Status in this test for O=C1O[C@H]([C@@H](O)CO)C(O)=C1O ? NO

Just curious, what result did OC12N=C(c3ccccc3)SC1Cc1cc(Cl)ccc12 (stereo unspecified) get here? NO

Record lookup: outcome of this test for CC[C@H](NC(=O)c1cc(F)ccc1NS(=O)(=O)c1cccc2cccnc12)c1ccccc1 ? NO

Would you mind telling me which call this test gave NC(=O)c1nc(-c2cccc(-c3cc(F)ccc3OCC(F)(F)C(F)(F)F)c2)n[nH]1 ? YES

Kindly provide the recorded test outcome for the following compound: Cc1ccc(C(C)C)cc1 NO

# outcome recorded in this test, key = O=C(OCCCCCCOC(=O)c1ccccc1)c1ccccc1 NO

I would be grateful if you could indicate the recorded call for CCN(CC)C(=O)c1cc(S(=O)(=O)Cc2ccccc2)c(N2CCC(c3ccccc3)CC2)cc1N(CC)CCN(C)C . YES
